# systemName: Thioredoxin reductase 1, cytoplasmic (Rattus norvegicus) (UniProt O89049)
# Sequence (O89049 whole entry, looked up): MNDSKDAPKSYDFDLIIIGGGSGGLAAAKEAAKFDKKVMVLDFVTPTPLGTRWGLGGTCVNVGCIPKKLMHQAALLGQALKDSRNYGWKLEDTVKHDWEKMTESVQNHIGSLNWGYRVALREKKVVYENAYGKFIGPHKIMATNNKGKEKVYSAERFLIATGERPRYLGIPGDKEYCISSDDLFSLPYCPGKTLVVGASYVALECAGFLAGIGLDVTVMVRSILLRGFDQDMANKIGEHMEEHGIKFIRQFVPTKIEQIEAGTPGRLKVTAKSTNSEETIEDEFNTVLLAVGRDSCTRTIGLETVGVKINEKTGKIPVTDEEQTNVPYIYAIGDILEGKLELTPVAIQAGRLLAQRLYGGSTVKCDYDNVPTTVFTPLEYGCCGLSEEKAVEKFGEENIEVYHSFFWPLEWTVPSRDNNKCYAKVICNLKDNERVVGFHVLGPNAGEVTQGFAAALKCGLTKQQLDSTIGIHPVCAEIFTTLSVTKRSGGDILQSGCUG
# testSummary: qHTS Assay for Inhibitors of Mammalian Selenoprotein Thioredoxin Reductase 1 (TrxR1) (AID 488773); also: nearly all actives have a fitted effect of over 40% in size
# measurementSetup: purified TrxR1 enzyme activity; inhibition; series mostly up to 57.1 µM
Records with an inconclusive call do not appear. The source made the active and inactive calls. Calls follow the shape of the dose curve; as a rule, active = well fitted inhibition curve with a large enough effect; inconclusive = small, poorly fitted or top-dose-only effect; inactive = no such curve, though single readings can be large or run the other way.
Tick one outcome: 1 (yes) for active, 0 (no) for inactive

Record excerpt, results attached:
CCSC(=N)N: 0 (no)
COc1cc([C@@H]2c3cc4c(cc3[C@H](O)C3COC(=O)[C@@H]32)OCO4)cc(OC)c1OC (stereo not given in full): 0 (no)
CC(N)(Cc1ccc(O)c(O)c1)C(=O)O (stereo not given): 1 (yes)
C=CCNc1ncnc2ccc(Br)cc12: 0 (no)
CC(N)(C(=O)O)c1ccc(C(=O)O)cc1 (stereo not given): 0 (no)

Ask: Which result was noted for this compound in the test: NCCNS(=O)(=O)c1cccc2c(Cl)cccc12
Result: 0 (no)

Ask: Which result was noted for this compound in the test: N=C(N)c1ccccc1
Result: 0 (no)

Ask: Which result was noted for this compound in the test: NC(=O)CC[C@H](N)C(=O)O
Result: 0 (no)

Ask: Which result was noted for this compound in the test: O=C(O)C1=CCNCC1
Result: 0 (no)

Ask: Which result was noted for this compound in the test: C[C@](Cc1ccc(O)c(O)c1)(NN)C(=O)O
Result: 1 (yes)

----------
# testSummary: qHTS for differential inhibitors of proliferation of Plasmodium falciparum line W2 (AID 1883);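 also: parasites grown with compound for 72 h before lysis and staining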
# measurementSetup: Plasmodium falciparum W2 proliferation inhibition; series mostly up to 28.7 µM
Results filed as inconclusive are left out. The source made the active and inactive calls. Calls come from the whole dose curve; as a rule, active = well fitted curve in the direction sought with a large enough effect; inconclusive = small, poorly fitted or top-dose-only effect, or another doubt; inactive = no such curve, though single readings can be large or run the other way.
Tick one outcome: active, inactive

Record excerpt, results attached:
CC(C)C[C@H](NC(=O)[C@H](O)[C@H](N)Cc1ccccc1)C(=O)O: inactive
N[C@H]1CONC1=O: inactive

Ask: Which result was noted for this molecule in the test: NC1CONC1=O (stereo not drawn)
Result: inactive

Ask: Which result was noted for this molecule in the test: CCCCCCN(CCCCCC)C(=O)Cc1c(-c2ccc(F)cc2)[nH]c2ccccc12
Result: active

Ask: Which result was noted for this molecule in the test: CCCCCCCCCCCCCCCCCCOC[C@H](COP(=O)([O-])OCC[N+](C)(C)C)OC
Result: inactive

Ask: Which result was noted for this molecule in the test: Oc1cc2c(cc1O)C(c1ccccc1)CNCC2 (stereo not drawn)
Result: active

----------
# testSummary: Nrf2 qHTS screen for inhibitors: Validation (AID 493153)
# measurementSetup: A549 ARE-Fluc reporter, 18-24 h; measured here: cytotoxicity max response
Results filed as inconclusive are left out.
Below, each of the compounds is paired with its reported viability change value.
Number only, in %; omit the unit.

Some solved entries appear below for comparison.
CC(C)[C@@H]1CC[C@@H](C)C[C@@H]1P(=O)(c1ccccc1)c1ccccc1: -1.08
Cc1nc2c(OCc3ccccc3)cccn2c1CC#N: -7.51
Cc1nc(N=Nc2ccc(C(=O)O)cc2)c(COP(=O)(O)O)c(C=O)c1O: -9.24

Ask: Using the record for NCCCNCCCCNCCCN , report its viability change.
Result: -11.3

Ask: Using the record for [Li+] , report its viability change.
Result: 6.42

Ask: Using the record for C[C@H](O)C(=O)C1=Nc2c(nc(N)[nH]c2=O)NC1 , report its viability change.
Result: 8.34

Ask: Using the record for COc1cc(CNC(=O)CCCCCCC(C)C)ccc1O , report its viability change.
Result: -9.77

Ask: Using the record for NC1CONC1=O (stereo unspecified) , report its viability change.
Result: 2.91

Ask: Using the record for N[C@@H](Cc1c[nH]c2ccccc12)C(=O)O , report its viability change.
Result: -4.03

Ask: Using the record for Cc1cccc(C)c1OCC(N)C(C)C (stereo unspecified) , report its viability change.
Result: 4.6

Ask: Using the record for N=C(N)SCCN , report its viability change.
Result: 0.333

Ask: Using the record for CCCC[C@@]1(C2CCCC2)Cc2cc(OCC(=O)O)c(Cl)c(Cl)c2C1=O , report its viability change.
Result: -6.32

Ask: Using the record for Cn1c(=O)c2[nH]c(-c3ccc(S(=O)(=O)O)cc3)nc2n(C)c1=O , report its viability change.
Result: -2.21

Ask: Using the record for OC[C@H]1O[C@H](n2cnc3c(N[C@H]4CCC[C@@H]4O)ncnc32)[C@H](O)[C@@H]1O , report its viability change.
Result: 2.15
